- Read-out: Peroxisomal acyl-coenzyme A oxidase 1 (ACOX1) gene, ACOX1 (gene 51)
- assay_text: LTEA_HepaRG_ACOX1: Life Technologies and Expression Analysis (LTEA) Assay for Peroxisomal acyl-coenzyme A oxidase 1 (ACOX1) gene using HepaRG (AID 2283467)
- conditions_used: mRNA level, 48 h; actives raise or lower the signal
- Procedure: LTEA_HepaRG is a cell based, multiplexed-readout assay that uses HepaRG, a human liver cell line, with measurements taken at 48 hours after chemical dosing on a 96-well plate.LTEA_HepaRG_ACOX1 is one of 102 assay component(s) measured in the LTEA HepaRG cell culture assay. It is a marker of Steatosis.Data from the assay component LTEA_HepaRG_ACOX1 was analyzed into 1 endpoint. […]
Calls of active or inactive are those of the source. Rule for the calls: active = hit-call score of the fitted dose curve at least 0.9, where 1 is the maximum; inactive = score below 0.9.
Outcome codes: yes (1) = active, no (0) = inactive

1) CCNS(=O)(=O)C(F)(F)C(F)(F)C(F)(F)C(F)(F)C(F)(F)C(F)(F)C(F)(F)C(F)(F)F :: no (0)
2) OCCCBr :: no (0)
3) Cc1ccc([N+](=O)[O-])cc1 :: no (0)
4) Clc1ccc(Cl)c(Cl)c1 :: no (0)
5) CCC12COCN1COC2 :: no (0)
6) c1ccc(NNc2ccccc2)cc1 :: no (0)
7) O=C(Nc1ccccc1)c1ccccc1I :: no (0)
8) [O-][Cl+]O :: no (0)
9) CN(C)c1ccccc1 :: no (0)
10) Oc1ccc2ccc3cccc4ccc1c2c34 :: no (0)
11) c1ccc2c(c1)-c1cccc3cccc-2c13 :: no (0)
12) CCCSC(=O)N(CCC)CCC :: no (0)
13) O=[N+]([O-])C(Br)(CO)CO :: no (0)
14) O=C1CCCO1 :: no (0)
15) c1ccc(C2CO2)cc1 (centres undefined) :: no (0)
16) CC(O)CCO (centres undefined) :: no (0)
17) Cc1ccc(N)cc1 :: no (0)
18) c1ccc2c(c1)oc1ccccc12 :: no (0)
19) Clc1ccccc1Cl :: no (0)
20) CCCCCCCCn1sccc1=O :: yes (1)
21) COc1cc(C=O)cc2c1[C@H](COC(N)=O)[C@]1(OC(C)=O)ON2C[C@H]2[C@@H]1N2C(C)=O :: yes (1)
22) OCCOCCO :: no (0)
23) COC(=O)Nc1nc2ccccc2[nH]1 :: no (0)
24) Nc1cc(Cl)cc(C(=O)O)c1Cl :: no (0)
25) Clc1ccc(C(c2ccc(Cl)cc2)C(Cl)(Cl)Cl)cc1 :: no (0)
26) Cc1cccc(N)c1N :: yes (1)
27) O=Cc1ccco1 :: no (0)
28) CCCCC(CC)COC(=O)c1ccc(C(=O)OCC(CC)CCCC)c(C(=O)OCC(CC)CCCC)c1 (centres undefined) :: no (0)
29) CCC[CH2][Sn]([Cl])([CH2]CCC)[CH2]CCC :: yes (1)
30) Nc1ccc(Cl)cc1N :: yes (1)
31) ClCCOCCCl :: no (0)
32) CS(=O)(=O)NC(=O)c1cc(Oc2ccc(C(F)(F)F)cc2Cl)ccc1[N+](=O)[O-] :: no (0)
33) CN(C)c1ccc(C(=O)c2ccc(N(C)C)cc2)cc1 :: no (0)
34) Cn1cc(-c2ccccc2)c(=O)c(-c2cccc(C(F)(F)F)c2)c1 :: no (0)
